# test target: R12 domain of RyR3 (Homo sapiens)
# Construct: RyR1 854–1054, RyR2 865–1065, RyR3 853–1053; made in house; host or cells: E. coli BL21 (DE3)
# Sequence (Q15413 853-1053): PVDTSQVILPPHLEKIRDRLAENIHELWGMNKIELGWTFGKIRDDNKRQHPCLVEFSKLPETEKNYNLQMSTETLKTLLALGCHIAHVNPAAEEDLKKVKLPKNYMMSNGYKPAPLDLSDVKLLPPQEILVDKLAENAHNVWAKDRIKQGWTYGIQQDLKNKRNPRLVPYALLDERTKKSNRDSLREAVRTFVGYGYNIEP
# test description: ITC, R12 domain of RyR3
# Assay type: binding
# assay context: RyR3 R12, no nucleotide; ITC 25 °C
As shown below, each of these compounds has a reported Kd value.
endpoint name: Kd (µM)

{"compound": "O=C1CN(/N=C/c2ncc(-c3ccc(Br)cc3)o2)C(=O)N1 [AZU, Azumolene]", "reported measurement": 394}
{"compound": "O=C(C[C@@H](NCCCO)C(=O)O)Nc1ccc2ccccc2c1 [RI-2]", "reported measurement": 178}
{"compound": "O=C1CN(/N=C/c2ccc(-c3ccc([N+](=O)[O-])cc3)o2)C(O)=N1 [DAN, Dantrolene]", "reported measurement": 235}

###

# test target: R12 domain of RyR1 (Homo sapiens, UniProt P21817)
# Construct: RyR1 854–1054, RyR2 865–1065, RyR3 853–1053; made in house; host or cells: E. coli BL21 (DE3)
# Sequence (P21817 854-1054): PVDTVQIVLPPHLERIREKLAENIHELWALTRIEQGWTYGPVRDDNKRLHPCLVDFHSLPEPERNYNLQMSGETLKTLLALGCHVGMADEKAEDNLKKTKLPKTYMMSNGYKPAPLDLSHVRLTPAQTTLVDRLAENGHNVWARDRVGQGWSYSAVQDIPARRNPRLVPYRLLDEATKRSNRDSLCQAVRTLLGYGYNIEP
# test description: ITC, R12 domain of RyR1
# Type: binding
# assay context: RyR1 R12 + 5 mM ADP

{"compound": "O=C1CN(/N=C/c2ncc(-c3ccc(Br)cc3)o2)C(=O)N1 [AZU, Azumolene]", "Kd, µM": 0.06}
{"compound": "O=C(C[C@@H](NCCCO)C(=O)O)Nc1ccc2ccccc2c1 [RI-2]", "Kd, µM": 3.86}

###

As shown below, each of these molecules has a reported pKd value.
# test target: R12 domain of RyR1 (Homo sapiens)
# Construct: RyR1 854–1054, RyR2 865–1065, RyR3 853–1053; made in house; host or cells: E. coli BL21 (DE3)
# test description: ITC, R12 domain of RyR1
# Type: binding
# assay context: RyR1 R12 + 5 mM AMP-PCP
pKd: −log10 of the molar value.
endpoint name: pKd

{"compound structure string": "O=C(C[C@@H](NCCCO)C(=O)O)Nc1ccc2ccccc2c1", "endpoint name": "pKd", "reported measurement": 6.25}
{"compound structure string": "O=C1CN(/N=C/c2ncc(-c3ccc(Br)cc3)o2)C(=O)N1", "endpoint name": "pKd", "reported measurement": 7.34}

###

# test target: RyR1-W881A R12 (Homo sapiens, UniProt P21817, W881A)
# Construct: RyR1 854–1054, RyR2 865–1065, RyR3 853–1053
# Sequence (P21817 854-1054 W881A): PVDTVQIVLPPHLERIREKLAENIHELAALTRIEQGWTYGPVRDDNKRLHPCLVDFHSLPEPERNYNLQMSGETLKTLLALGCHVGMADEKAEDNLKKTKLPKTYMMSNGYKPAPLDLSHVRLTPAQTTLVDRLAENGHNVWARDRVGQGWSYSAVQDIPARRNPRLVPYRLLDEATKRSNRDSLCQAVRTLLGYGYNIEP
# test description: ITC, RyR1 R12 W881A
# assay context: RyR1-W881A R12, no nucleotide
As shown below, each of these compounds has a reported Kd value.

{"compound structure string": "O=C1CN(/N=C/c2ncc(-c3ccc(Br)cc3)o2)C(=O)N1", "test target": "RyR1-W881A R12 (Homo sapiens, UniProt P21817, W881A)", "output unit": "µM", "Kd": 358}
{"compound structure string": "O=C(C[C@@H](NCCCO)C(=O)O)Nc1ccc2ccccc2c1", "test target": "RyR1-W881A R12 (Homo sapiens, UniProt P21817, W881A)", "output unit": "µM", "Kd": 292}
